Experiment: in vitro
Conditions: Mesocricetus auratus (hamster)
Measure: CC50

[[record]]
compound = "O=C(Nc1ccc(-n2nnc3cc(Cl)c(Cl)cc32)cc1)c1ccc([N+](=O)[O-])cc1 [1h]"
result = "96 µM"

[[record]]
compound = "O=C(Nc1ccc(-n2nc3cc(Cl)c(Cl)cc3n2)cc1)NC1CCCCC1 [2n]"
result = "71 µM"

[[record]]
compound = "CCCC(=O)N(C(=O)CCC)c1ccc(-n2nnc3cc(Cl)c(Cl)cc32)cc1 [1e]"
result = "16 µM"

[[record]]
compound = "COc1cc(C(=O)Nc2ccc(-n3nnc4cc(Cl)c(Cl)cc43)cc2)cc(OC)c1OC [1j]"
result = "> 100 µM"

[[record]]
compound = "COc1ccc(C(=O)Nc2ccc(-n3nc4cc(Cl)c(Cl)cc4n3)cc2)cc1 [2i]"
result = "> 100 µM"

[[record]]
compound = "COc1cc(C(=O)Nc2ccc(-n3nc4cc(C)c(C)cc4n3)cc2)cc(OC)c1OC [4j]"
result = "> 100 µM"

[[record]]
compound = "O=C(Nc1ccc(-n2nc3cc(Cl)c(Cl)cc3n2)cc1)c1ccc(Cl)cc1 [2g]"
result = "> 100 µM"

[[record]]
compound = "CCNC(=O)Nc1ccc(-n2nc3cc(Cl)c(Cl)cc3n2)cc1 [2k]"
result = "> 100 µM"

[[record]]
compound = "Cc1ccc(C(=O)Nc2ccc(-n3nc4cc(C)c(C)cc4n3)cc2)cc1 [4f]"
result = "> 100 µM"

[[record]]
compound = "CCC(=O)Nc1ccc(-n2nc3cc(Cl)c(Cl)cc3n2)cc1 [2c]"
result = "> 100 µM"

[[record]]
compound = "COc1cc(C(=O)Nc2ccc(-n3nc4cc(Cl)c(Cl)cc4n3)cc2)cc(OC)c1OC [2j]"
result = "35 µM"

[[record]]
compound = "CC(=O)Nc1ccc(-n2nc3cc(Cl)c(Cl)cc3n2)cc1 [2b]"
result = "> 100 µM"

[[record]]
compound = "Cc1ccc(C(=O)Nc2ccc(-n3nc4ccccc4n3)cc2)cc1 [3f]"
result = "> 100 µM"

[[record]]
compound = "O=C(Nc1ccc(-n2nnc3cc(Cl)c(Cl)cc32)cc1)c1ccc(Cl)cc1 [1g]"
result = "> 100 µM"


* * *

Attribute: EC50
System: Hantaan (HTNV) (strain 76–118)
Assay: microbe, parasite or virus in culture
Format: cell-based, Hantaan virus
Details: Orthohantavirus hantanense, Vero C1008, 168 h, read-out: HTNV EC50
Measure: EC50

[[record]]
molecule = "O=C(Nc1ccc(-n2nc3ccccc3n2)cc1)NC1CCCCC1 [3n]"
result = "> 30 µM"

[[record]]
molecule = "COc1cc(C(=O)Nc2ccc(-n3nc4ccccc4n3)cc2)cc(OC)c1OC [3j]"
result = "> 30 µM"

[[record]]
molecule = "Cc1ccc(C(=O)Nc2ccc(-n3nnc4cc(Cl)c(Cl)cc43)cc2)cc1 [1f]"
result = "> 30 µM"

[[record]]
molecule = "Cc1ccc(C(=O)Nc2ccc(-n3nc4cc(Cl)c(Cl)cc4n3)cc2)cc1 [2f]"
result = "22 µM"

[[record]]
molecule = "CCCC(=O)N(C(=O)CCC)c1ccc(-n2nnc3cc(Cl)c(Cl)cc32)cc1 [1e]"
result = "> 25 µM"

[[record]]
molecule = "NC(=O)c1ncn([C@@H]2O[C@H](CO)[C@@H](O)[C@H]2O)n1 [RBV, Ribavirin, reference compound]"
result = "37 µM"

[[record]]
molecule = "CCCNC(=O)Nc1ccc(-n2nc3ccccc3n2)cc1 [3l]"
result = "> 30 µM"

[[record]]
molecule = "COc1ccc(C(=O)Nc2ccc(-n3nnc4cc(Cl)c(Cl)cc43)cc2)cc1 [1i]"
result = "> 30 µM"

[[record]]
molecule = "Nc1ccc(-n2nnc3cc(Cl)c(Cl)cc32)cc1 [1a]"
result = "> 30 µM"

